target: human α2A‐adrenoceptor (Homo sapiens, UniProt P08913); test: 3H‐rauwolscine whole cell binding in CHO‐α2A cells; parameters: expressed in transfected cells; host or cells: CHO-K1 with CRE-SPAP reporter
Sequence (P08913 whole entry): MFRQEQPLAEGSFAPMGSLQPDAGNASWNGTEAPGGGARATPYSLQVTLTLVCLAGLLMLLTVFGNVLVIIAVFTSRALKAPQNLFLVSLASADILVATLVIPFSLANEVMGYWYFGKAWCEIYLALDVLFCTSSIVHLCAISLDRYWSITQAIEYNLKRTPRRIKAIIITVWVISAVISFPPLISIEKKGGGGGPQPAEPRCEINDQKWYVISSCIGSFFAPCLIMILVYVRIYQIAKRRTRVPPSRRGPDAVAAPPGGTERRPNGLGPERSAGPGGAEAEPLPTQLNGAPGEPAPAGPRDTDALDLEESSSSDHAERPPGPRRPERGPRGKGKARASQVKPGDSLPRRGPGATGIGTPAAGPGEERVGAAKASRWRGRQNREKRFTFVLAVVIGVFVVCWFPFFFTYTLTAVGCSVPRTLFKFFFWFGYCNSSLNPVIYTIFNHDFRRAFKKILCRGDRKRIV
metric.name: Kd

- Cc1cccc(C)c1N=C1NCCCS1: 11.5 µM
- CN[C@@H](C)[C@H](O)c1ccccc1: 34.7 µM
- Cc1cc(C(C)(C)C)cc(C)c1CC1=NCCN1: 0.024 µM
- CNCC(O)c1ccc(O)cc1 (stereo not shown) [Synephrine]: 89.1 µM

----------
biological target: human α2C‐adrenoceptor (Homo sapiens, UniProt P18825)
Sequence (P18825 whole entry): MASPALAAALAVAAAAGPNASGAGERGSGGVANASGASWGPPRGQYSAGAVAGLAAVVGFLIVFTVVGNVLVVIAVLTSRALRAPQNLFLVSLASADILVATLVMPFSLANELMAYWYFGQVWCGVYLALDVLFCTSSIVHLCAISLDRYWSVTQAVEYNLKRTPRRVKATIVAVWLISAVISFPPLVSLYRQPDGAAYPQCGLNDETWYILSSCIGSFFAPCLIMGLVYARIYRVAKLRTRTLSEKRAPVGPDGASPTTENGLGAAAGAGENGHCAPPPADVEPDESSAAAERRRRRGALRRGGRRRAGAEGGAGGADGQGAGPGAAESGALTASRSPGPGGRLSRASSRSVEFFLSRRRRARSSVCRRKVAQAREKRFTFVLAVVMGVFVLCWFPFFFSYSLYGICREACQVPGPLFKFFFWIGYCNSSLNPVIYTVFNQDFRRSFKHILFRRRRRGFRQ
For each record, check the reported Log efficacy ratio (KD/IC50): if it is below 1 write Fulfilled, else write Not fulfilled.

- Nc1cc(Cl)c(N=C2NCCN2)c(Cl)c1: Not fulfilled
- Cc1sc(C)c2c1CCC=C2c1cnc[nH]1.O=C(O)/C=C\C(=O)O: Fulfilled
- CCc1cccc(CC)c1NC1=NCCN1: Not fulfilled
- Cc1cc(C(C)(C)C)cc(C)c1CC1=NCCN1: Fulfilled
- Cc1cccc(C)c1N=C1NCCCS1: Not fulfilled
- C=CCN1CCc2nc(N)sc2CC1: Not fulfilled
